Please respond with reported growth for every item in the list.
System: PC-3 prostate
Test: NCI-60 one-dose screen, 48 h (100 = growth as untreated, 0 = no growth, -100 = all killed)
Conditions: 10 µM unless noted
About 83,000 compounds went through this panel and 20% of them were active in at least one assay; those are over-represented in the sample as a whole. Active and inactive are the calls of the source. The calls were made as follows: active = growth percent below 10; inactive = the rest.

If you can, please state the reported growth value of "Cc1cc(NC(=O)c2ccccc2)c(Cl)cc1N" .
108% (inactive)

Next entry: "Cn1c(=O)c2[nH]c(CC(=O)O)nc2n(C)c1=O"
96.8% (inactive)

Next entry: "O=C1C=Cc2ccccc2/C1=C/c1[nH]c(=O)[nH]c1O"
27.4% (inactive)

Next entry: "CC(C)Sc1ncnc2nc[nH]c12"
91.6% (inactive)

Next entry: Oc1ccc(CCC2CCNc3ccccc32)cc1 (stereo not given)
60.7% (inactive)

Next entry: "S=C(NCc1ccccc1)N1CCC(CCCC2CCN(C(=S)NCc3ccccc3)CC2)CC1"
89.5% (inactive)

Next entry: "CCN(CC)CCOC(=O)Nc1c(C(C)C)cccc1C(C)C"
95.5% (inactive)

Next entry: "O=C(NCc1ccccc1)c1cccc([N+](=O)[O-])c1"
88.9% (inactive)

Next entry: "O=C(Oc1ccccc1Cl)c1ccc(Cl)cc1Cl"
93.6% (inactive)

Next entry: "CN1C(=O)NC(c2ccc(Cl)cc2)(c2ccc(Cl)cc2)C1=O"
84.6% (inactive)

Next entry: "Nc1c(O)c(S(=O)(=O)O)c(O)c2c1C(=O)c1ccccc1C2=O"
23.8% (inactive)

Next entry: "CCCc1cccc(CCC)c1NC(=O)Nc1cc(Cl)cc(Cl)c1"
101% (inactive)

Next entry: "C/C(Cc1ccccc1)=N\O"
88.4% (inactive)

Next entry: CC1CCC(C(C)(C)[N+](C)(C)C)CC1 (stereo not given)
96.9% (inactive)

Next entry: "Ic1cccs1"
99.5% (inactive)

Next entry: "CC1=CC(=Nc2ccc(N(C)C)cc2)C=C(C)C1=O"
69.9% (inactive)

Next entry: "CCN(C(=O)Nc1ccccc1Cl)c1ccccc1"
94.6% (inactive)

Next entry: "COc1ccc(Nc2cc(Cl)ccc2C(=O)O)cn1"
99% (inactive)

Next entry: "c1cc(CNCCNCc2ccncc2)ccn1"
92.1% (inactive)

Next entry: "Nc1ccc(F)c(Cl)c1F"
84.1% (inactive)

Next entry: "C/C(O)=C(/C=N\C(=S)Nc1ccc(S(=O)(=O)Nc2nccs2)cc1)C(=O)Nc1ccccc1C"
84.9% (inactive)

Next entry: "N#C/C(=C\NC(=S)N=Nc1c(O)[nH]c2ccccc12)c1nc2ccccc2s1"
86.1% (inactive)

Next entry: "O=C(O)CC1=CCCCC1"
96% (inactive)

Next entry: "Cc1c(Cl)cccc1N=C=S"
89.6% (inactive)

Next entry: "CCCCCCCCCCC(=O)CCCCCCCCCC"
97.8% (inactive)

Next entry: "CCCCNC(=O)c1ccc(OCC)cc1"
90.9% (inactive)

Next entry: "Clc1ncnc2nc[nH]c12"
96.4% (inactive)

Next entry: "Nc1nnc2cc(F)ccc2n1"
96.6% (inactive)

Next entry: "CCOC(=O)N[C@H]1CCc2cc(OC)c(OC)c(OC)c2-c2ccc(SC)c(=O)cc21"
27.7% (inactive)

Next entry: "Cc1ccc(C(C)C)c(OCC(=O)O)c1"
98.7% (inactive)

Next entry: "CN(CCCN(C)CCC1CCCCC1)CCC1CCCCC1"
43.2% (inactive)

Next entry: "Cc1ccc(OC(=O)c2ccccc2)cc1"
105% (inactive)

Next entry: "FC(F)(F)c1cc(NC2=NCCN=C(Nc3cc(C(F)(F)F)cc(C(F)(F)F)c3)SS2)cc(C(F)(F)F)c1"
17.1% (inactive)

Next entry: "COc1cc(C(=O)O)c(O)c(C(C)(C)C)c1"
97.6% (inactive)

Next entry: "O=C1NC(=O)/C(=C\c2ccncc2)N1"
96.3% (inactive)
